Ref: patent US20190177408A1

# assay.target: T1, human soluble IL-4Rα (sIL-4Rα) (human, UniProt P24394 26-232)
# T1 construct: Bought reagent (PEPRO TECH, Catalog Number 200-04R); also called shIL-4Rα; soluble hIL-4 Rα
# T1 sequence: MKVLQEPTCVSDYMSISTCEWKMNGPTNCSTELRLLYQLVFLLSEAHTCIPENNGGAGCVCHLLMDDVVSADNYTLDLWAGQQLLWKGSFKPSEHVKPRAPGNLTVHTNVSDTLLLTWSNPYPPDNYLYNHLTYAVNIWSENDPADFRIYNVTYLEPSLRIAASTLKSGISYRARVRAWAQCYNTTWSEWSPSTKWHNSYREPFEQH
# test.description: ELISA, coated sIL-4Rα, culture supernatant
Provide the reported OD 450/OD450Control antibody 1 of each item.
One number for each entry.

{"binder": "L1021H1016 (antibody, V domains shown, human kappa) VH: EVQLVQSGGGLVHPGGSLRLSCAGSGFTFSRNAMFWVRQAPGKGLEWVSGIGTGGATNYADSVKGRFTISRDNAKNSLYLQMNSLRAEDMAVYYCARGRYYFPWWGQGTLVTVSS VL: EIVLTQSPGTLSLSPGERATLSCRASQSVSSSYLAWYQQKPGQAPRLLIFGASSRAPGIPDRFSGSGSGTDFTLTISRLEPEDFAVYYCQQYDHSAGWTFGQGTKVEIK", "OD 450/OD450Control antibody 1": 0.63}

--- query ---
Look up and state reported OD 450/OD450Control antibody 1 for L1021H1020 (antibody, V domains shown, human kappa) VH: EVQLVQSGGGLVHPGGSLRLSCAGSGFTFSRNAMFWVRQAPGKGLEWVSGIGTGGATSYADSVKGRFTISRDNAKNSLYLQMNSLRAEDMAVYYCARGRYYFPWWGQGTLVTVSS VL: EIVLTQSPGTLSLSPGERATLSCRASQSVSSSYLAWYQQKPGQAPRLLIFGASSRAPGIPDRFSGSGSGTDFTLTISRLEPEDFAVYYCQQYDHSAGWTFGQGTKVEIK
0.24
